Test: Compound stability in human liver microsomes
Type: in vitro ADME
Details: pH 7.4; human liver microsomes 0.5 mg protein/mL, compound 5 μM, NADPH 1.0 mM, 37° C.; read-out: Human T1/2
quantity name: half-life at 5 μM (h)

Record excerpt, results attached:
compound: CC(O)Cn1cc(Nc2ncc(Cl)c(NC3CC4CN(S(C)(=O)=O)CC4C3)n2)cn1 (stereo not drawn)
unit info: h
half-life at 5 μM: 1.12
//
compound: N#CCC(=O)N1CC2CC(Nc3nc(Nc4cnn(C5CCNCC5)c4)ncc3Cl)CC2C1 (stereo not drawn)
unit info: h
half-life at 5 μM: 17.4
//
compound: Cn1cc(Nc2ncc(Cl)c(NC3CC4CN(S(=O)(=O)NC5CC5)CC4C3)n2)cn1 (stereo not drawn)
unit info: h
half-life at 5 μM: 0.595
//
compound: CC(=O)N1CCC2(CCC(Nc3nc(Nc4cnn(C5CCNCC5)c4)ncc3Cl)CC2)CC1
unit info: h
half-life at 5 μM: 4.58
//
compound: CCNS(=O)(=O)N1CC2CC(Nc3nc(Nc4cnn(C)c4)ncc3Cl)CC2C1 (stereo not drawn)
unit info: h
half-life at 5 μM: 0.566

(a) CC(C)(O)Cn1cc(Nc2ncc(Cl)c(NC3CC4CN(S(C)(=O)=O)CC4C3)n2)cn1 (stereo not drawn)
(b) Cn1cc(Nc2ncc(Cl)c(NC3CC4CN(c5ccc(C#N)nn5)CC4C3)n2)cn1 (stereo not drawn)
Of the two listed items, which has the higher half-life at 5 μM? First: a Second: b Answer by quoting the chosen item's label.
a
(a: 0.827 h, b: 0.415 h)

(a) Cn1cc(Nc2ncc(Cl)c(NC3CC4CN(CC(C)(C)O)CC4C3)n2)cn1 (stereo not drawn)
(b) CC(=O)N1CC2CC(Nc3nc(Nc4cnn(C5CCNCC5)c4)ncc3Cl)CC2C1 (stereo not drawn)
Of the two listed items, which has the higher half-life at 5 μM? First: a Second: b Answer by quoting the chosen item's label.
b
(b: 11 h, a: 3.5 h)
